# MEASURED_TARGET: human F508del-CFTR (Homo sapiens, UniProt P13569, DEL508-508)
# Sequence (P13569 with tags, fused parts or gaps DEL508-508): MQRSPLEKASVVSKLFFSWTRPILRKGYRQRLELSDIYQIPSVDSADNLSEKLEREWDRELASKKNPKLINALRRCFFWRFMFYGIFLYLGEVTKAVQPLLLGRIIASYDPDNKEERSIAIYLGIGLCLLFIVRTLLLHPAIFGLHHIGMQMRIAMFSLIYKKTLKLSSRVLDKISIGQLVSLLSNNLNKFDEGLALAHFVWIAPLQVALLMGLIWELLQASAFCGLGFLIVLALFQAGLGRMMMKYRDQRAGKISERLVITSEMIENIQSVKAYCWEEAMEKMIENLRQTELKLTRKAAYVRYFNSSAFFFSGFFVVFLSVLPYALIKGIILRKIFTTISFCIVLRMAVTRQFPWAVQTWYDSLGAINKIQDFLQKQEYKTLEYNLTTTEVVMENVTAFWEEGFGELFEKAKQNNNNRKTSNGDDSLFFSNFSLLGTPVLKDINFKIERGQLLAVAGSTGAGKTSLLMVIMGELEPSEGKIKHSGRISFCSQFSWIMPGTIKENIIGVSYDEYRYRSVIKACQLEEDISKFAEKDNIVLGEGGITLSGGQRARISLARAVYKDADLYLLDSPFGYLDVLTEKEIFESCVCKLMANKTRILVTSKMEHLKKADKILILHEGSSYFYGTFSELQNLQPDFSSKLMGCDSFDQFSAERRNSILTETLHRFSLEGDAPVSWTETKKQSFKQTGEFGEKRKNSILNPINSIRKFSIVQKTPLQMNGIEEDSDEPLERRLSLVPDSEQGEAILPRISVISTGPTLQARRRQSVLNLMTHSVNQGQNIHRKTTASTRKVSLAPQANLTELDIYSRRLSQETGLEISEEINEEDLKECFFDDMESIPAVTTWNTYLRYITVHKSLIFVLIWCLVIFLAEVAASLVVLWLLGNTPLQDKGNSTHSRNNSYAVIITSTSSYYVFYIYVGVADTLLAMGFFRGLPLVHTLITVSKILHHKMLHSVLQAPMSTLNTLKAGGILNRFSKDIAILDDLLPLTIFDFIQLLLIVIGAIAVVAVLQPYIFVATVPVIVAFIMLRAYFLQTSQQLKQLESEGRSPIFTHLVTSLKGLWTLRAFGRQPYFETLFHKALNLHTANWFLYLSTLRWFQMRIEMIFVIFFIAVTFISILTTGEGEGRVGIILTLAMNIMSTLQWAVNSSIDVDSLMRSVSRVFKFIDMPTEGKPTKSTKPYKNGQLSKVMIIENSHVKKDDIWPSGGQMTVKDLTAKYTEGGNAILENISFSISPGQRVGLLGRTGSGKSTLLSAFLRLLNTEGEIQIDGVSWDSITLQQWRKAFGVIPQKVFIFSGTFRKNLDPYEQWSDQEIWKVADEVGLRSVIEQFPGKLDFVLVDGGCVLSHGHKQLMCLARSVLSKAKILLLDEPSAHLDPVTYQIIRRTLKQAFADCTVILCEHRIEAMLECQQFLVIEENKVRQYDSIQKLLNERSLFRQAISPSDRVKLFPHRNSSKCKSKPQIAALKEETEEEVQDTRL
# TEST_PROTOCOL: F508del-CFTR cell surface expression (corrector activity), DiscoveRx ß-galactosidase complementation chemiluminescence assay in recombinant U2OS cell line;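 also: U2OS cells co-expressing ProLink-tagged F508del-CFTR and a membrane-anchored enzyme acceptor, where more surface CFTR restores β-galactosidase activity measured by chemiluminescence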
# CONDITION_DETAILS: U2OS, in relation to Emax of corrector lumacaftor (=100%); arithmetic mean values
Emax by entry:
Number only, in %; omit the unit.

CHEMICAL_STRING	ENDPOINT_LABEL	VALUE_OBSERVED
COCCCS(=O)(=O)N1CCN2C(=O)[C@H](CC(C)C)N(C)C(=O)C[C@@H](C(=O)NCCc3cccc(OC)c3)NC(=O)c3c(ccc4ccccc34)OC[C@@H](Cc3ccccc3)NC(=O)[C@H]2C1	Emax	217
CC(C)C[C@H]1C(=O)N2CCCC[C@@H]2C(=O)N[C@H](Cc2ccccc2)COc2cnc3ccc(F)cc3c2C(=O)N[C@H](C(=O)NCCc2cc(C(F)(F)F)no2)CC(=O)N1C	Emax	249
CCN1CCN2C(=O)[C@H](CC(C)C)N(C)C(=O)C[C@@H](C(=O)NCCc3cccc(OC)c3)NC(=O)c3c(OC)cccc3OC[C@@H](Cc3ccccc3)NC(=O)[C@H]2C1	Emax	257
CC(C)C[C@H]1C(=O)N2CCCC[C@@H]2C(=O)N[C@H](Cc2ccccc2)COc2cnc3c(F)cccc3c2C(=O)N[C@H](C(=O)NCCc2cc(C3CC3)no2)CC(=O)N1C	Emax	321

Inquiry: What value of Emax has been recorded for this entry: CC(C)C[C@H]1C(=O)N(C)[C@H](C)C(=O)N[C@H](Cc2ccccc2)COc2ccc3ncc(F)cc3c2C(=O)N[C@H](C(=O)NCCc2cc(C3CC3)no2)CC(=O)N1C
Reply text: 308
